ASSAYED TARGET: T1, SIRP-α human v2 (human, UniProt P78324 31-149, limits assumed)
T1 construct: Soluble analyte in SPR
T1 sequence (P78324 other isoform, or with tags, fused parts or gaps limits assumed): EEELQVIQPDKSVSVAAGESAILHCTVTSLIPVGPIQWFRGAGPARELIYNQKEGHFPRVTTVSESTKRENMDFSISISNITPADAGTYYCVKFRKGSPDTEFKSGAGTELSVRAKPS
ASSAY REMARKS: SPR, antibody on GLC chip, SIRP as analyte
Assignment: determine reported pKd for the given binders.
Numbers only, as −log10 of the molar value.

Quick one: give measured pKd for Anti-SIRP-α antibody 136, light chain Mut_S22T, heavy chain Mut (antibody, V domains shown, Whole antibody) VH: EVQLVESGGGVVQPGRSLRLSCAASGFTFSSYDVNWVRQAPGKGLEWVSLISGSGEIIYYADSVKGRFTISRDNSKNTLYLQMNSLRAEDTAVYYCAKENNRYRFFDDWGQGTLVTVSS VL: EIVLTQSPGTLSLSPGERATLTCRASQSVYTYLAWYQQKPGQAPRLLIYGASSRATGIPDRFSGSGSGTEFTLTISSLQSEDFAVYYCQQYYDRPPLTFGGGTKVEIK
8.08

Continuing:
Quick one: give measured pKd for Hum1/AB21_HC_Mutall (antibody, V domains shown, Whole antibody) VH: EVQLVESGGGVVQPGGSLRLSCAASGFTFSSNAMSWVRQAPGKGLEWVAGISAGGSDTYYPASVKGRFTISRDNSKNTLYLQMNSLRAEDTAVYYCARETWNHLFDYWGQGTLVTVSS VL: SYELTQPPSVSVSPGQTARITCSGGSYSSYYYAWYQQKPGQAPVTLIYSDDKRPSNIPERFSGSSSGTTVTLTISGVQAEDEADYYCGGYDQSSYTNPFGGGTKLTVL
11.34
